// data source = paper PMC12204359

- testedSystem: T1, clathrin heavy chain minimal ankle region (CHC^ankle, aa 358–574) (human, UniProt Q00610 358-574)
- T1 chain: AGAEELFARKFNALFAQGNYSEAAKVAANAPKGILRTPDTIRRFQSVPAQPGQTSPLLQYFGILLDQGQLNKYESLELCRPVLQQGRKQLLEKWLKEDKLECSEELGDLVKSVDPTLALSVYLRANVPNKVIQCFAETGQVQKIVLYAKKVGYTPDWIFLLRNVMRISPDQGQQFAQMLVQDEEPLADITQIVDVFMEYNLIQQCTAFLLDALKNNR
- protocolNotes: FP
Positions of bridges follow the written chain, without caps; N, C: chain ends. Non-standard residues stand in square brackets, D forms with d. Primed or numbered codes have the meaning given here. No end group written: not given here. FAM″ = 5(6)-carboxyfluorescein label; S5 = C=CCCC[C@](C)(N)C(=O)O; PEG3′ = PEG3 linker
Entries and their pKd
Conceptually, pKd converts a concentration in mol/L into minus its log10.

Below, each entry is followed by its recorded pKd result.
{FAM}-KESALRKLELLLEFDPLFRDS (designed binder, staple (positions not given here); not fully specified (residues 8, 12, bridges); also: (S)-2-(4-pentenyl)alanine at 557 and 561 not placed in the given letters) [Opt SP TACC3] :: 6.87
{FAM-PEG3′}-KESALRK[S5]ELL[S5]EFDPLFRDS (designed binder, staple 8-12) [Opt PEG3 SP TACC3] :: 6.92
{FAM″}-KESALRKQDLY[S5]KFD[S5]LLRDS-NH2 (staple 12-16) [SP5D] :: 3.44

Requested field: pKd. Item: KESALRKXDLYXKFDPLLRDS (N-terminal FAM; X557 and X561 are (S)-2-(4-pentenyl)alanine joined as i,i+4 hydrocarbon staple; staple position and limits inferred from Opt SP TACC3 (KESALRK*ELL*…), exact sequence only in Fig 3A) [SP4D]
4.41

Thanks! And {FAM″}-KESALRKQELY[S5]KFD[S5]LLRDS-NH2 (staple 12-16) [SP5E] ?
3.63
